- systemTested: cannabinoid receptor (CP 55940 binding sites) (Rattus norvegicus)
- Construct: from tissue; host or cells: rat brain membranes (inferred from the cited Devane et al. 1988)
- Sequence (P20272 whole entry): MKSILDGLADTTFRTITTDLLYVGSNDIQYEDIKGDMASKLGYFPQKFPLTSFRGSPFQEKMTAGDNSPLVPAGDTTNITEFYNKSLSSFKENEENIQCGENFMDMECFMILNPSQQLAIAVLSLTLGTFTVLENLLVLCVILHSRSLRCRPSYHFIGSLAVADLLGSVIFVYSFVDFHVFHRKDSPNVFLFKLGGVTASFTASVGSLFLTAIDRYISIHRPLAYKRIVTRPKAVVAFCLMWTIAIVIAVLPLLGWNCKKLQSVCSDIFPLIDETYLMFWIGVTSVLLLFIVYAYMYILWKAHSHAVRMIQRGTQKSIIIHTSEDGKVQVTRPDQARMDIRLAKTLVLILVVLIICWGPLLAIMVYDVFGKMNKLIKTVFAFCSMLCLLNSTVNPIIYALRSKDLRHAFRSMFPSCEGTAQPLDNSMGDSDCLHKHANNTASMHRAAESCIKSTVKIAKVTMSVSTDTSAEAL
- assay: CP55940 binding assay (CP)
- measurementConditions: CP55940 binding; read-out: CP IC50

[
  {
    "compound": "COc1ccc(C(=O)c2c(C)n3c4c(cccc24)OCC3CN2CCOCC2)cc1 (single isomer, unassigned; (+)) [Ex. 2H (d)]",
    "systemTested": "cannabinoid receptor (CP 55940 binding sites) (Rattus norvegicus)",
    "IC50 [nM]": 199
  }
]

====

- systemTested: cannabinoid receptor (CP 55940 binding sites) (Rattus norvegicus)
- Construct: from tissue; host or cells: rat brain membranes (inferred from the cited Devane et al. 1988)
- assay: CP55940 binding assay (CP)
- measurementConditions: CP IC50, CP55940 binding
pIC50: −log10 of the molar value.
measuredProperty: pIC50

[
  {
    "compound": "Cc1c(C(=O)c2cccc3ccccc23)c2cccc3c2n1CC(CN1CCOCC1)O3 (stereo not shown)",
    "measuredProperty": "pIC50",
    "observedMeasurement": "~8.00"
  }
]
